# System: MEF Icmt^−/− cells
# method: MTT cell viability in MEF Icmt-/- cells
# Type: cell-based
# condition-parameters: read-out: IC50 MEF Icmt^−/−
pIC50: −log10 of the molar value.
test-readout: pIC50

Exercise: # pIC50 lookup, item COC(=O)CCSC/C=C(\C)CCn1cc(CCc2cccc(-c3ccccc3)c2)nn1 [Compound 10o]
Solution: < 4.00

Exercise: Can you check COC(=O)CCSC/C=C(\C)CCn1cc(CCc2ccc(-c3ccccc3)cc2)nn1 [Compound 10n] next?
Solution: < 4.00

Exercise: Then what about the compound COC(=O)CCSC/C=C(\C)CCn1cc(-c2cccc3ccccc23)nn1 [Compound 10g] ?
Solution: < 4.00
